# subject of test: PARP-1 enzyme (Homo sapiens, UniProt P09874)
# Construct: made in house
# Sequence (P09874 whole entry): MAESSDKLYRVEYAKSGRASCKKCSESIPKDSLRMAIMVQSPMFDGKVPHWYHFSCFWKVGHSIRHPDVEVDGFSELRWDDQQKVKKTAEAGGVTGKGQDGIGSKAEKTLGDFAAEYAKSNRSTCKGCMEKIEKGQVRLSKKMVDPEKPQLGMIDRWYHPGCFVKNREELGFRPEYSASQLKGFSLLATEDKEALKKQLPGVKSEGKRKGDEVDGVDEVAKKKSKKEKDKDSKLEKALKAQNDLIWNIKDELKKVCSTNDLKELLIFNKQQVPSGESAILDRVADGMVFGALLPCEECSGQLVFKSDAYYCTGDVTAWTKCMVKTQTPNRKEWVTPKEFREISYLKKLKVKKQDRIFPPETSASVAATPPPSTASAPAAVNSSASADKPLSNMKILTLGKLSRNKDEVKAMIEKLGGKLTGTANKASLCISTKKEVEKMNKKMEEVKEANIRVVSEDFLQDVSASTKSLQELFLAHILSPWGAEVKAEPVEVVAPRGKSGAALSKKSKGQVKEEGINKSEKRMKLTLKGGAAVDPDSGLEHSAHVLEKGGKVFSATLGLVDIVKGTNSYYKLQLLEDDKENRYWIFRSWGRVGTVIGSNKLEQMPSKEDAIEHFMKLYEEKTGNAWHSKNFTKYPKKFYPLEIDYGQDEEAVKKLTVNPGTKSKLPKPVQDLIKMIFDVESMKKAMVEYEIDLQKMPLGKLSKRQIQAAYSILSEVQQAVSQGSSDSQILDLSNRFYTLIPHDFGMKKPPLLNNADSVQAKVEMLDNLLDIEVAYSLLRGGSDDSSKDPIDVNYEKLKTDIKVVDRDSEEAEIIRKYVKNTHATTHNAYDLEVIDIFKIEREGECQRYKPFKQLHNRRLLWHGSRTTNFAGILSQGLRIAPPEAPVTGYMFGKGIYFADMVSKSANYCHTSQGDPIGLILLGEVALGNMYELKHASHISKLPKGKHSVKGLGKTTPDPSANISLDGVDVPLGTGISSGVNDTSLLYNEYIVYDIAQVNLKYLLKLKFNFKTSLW
# method notes: in vitro Scintillation Proximity Assay (SPA) for PARP-1 inhibitory activity
# Assay type: biochemical
# measurement setup: [3H]-NAD+, biotinylated histones, nicked DNA; dose-response 10^-5 M to 10^-8 M; read-out: in vitro SPA assay PARP-1 pIC50 (converted)
log10 of IC50 values, listed per item
Note the log scale: values are log10 of IC50 expressed in µM.

Study these solved cases before continuing.
compound="O=c1[nH]nc(N[C@@H]2C[C@H]3CC[C@@H](C2)N3CCCC(c2ccc(F)cc2)c2ccc(F)cc2)c2ccccc12 [Compound 3]" measured_result=-0.37
compound="Cc1nc2n(c(=O)c1CCN1CCN(c3nnc(C)c4ccccc34)CC1)CCS2 [Compound 75]" measured_result=0.63
compound="Fc1ccc(C(CCCN2CCN(c3nnc(Cl)c4ccccc34)CC2)c2ccc(F)cc2)cc1 [Compound 57]" measured_result=0.29
compound="Clc1nnc(NC2CCN(CCCCOc3ccccc3)CC2)c2ccccc12 [Compound 59]" measured_result=0.52
compound="O=c1[nH]nc(N2CCC(c3cccc(C(F)(F)F)c3)C2)c2ccccc12 (centres unmarked) [Compound 55]" measured_result=0.22
compound="Cc1nnc(N2CCN(CCn3c(=O)[nH]c4ccccc43)CC2)c2ccccc12 [Compound 71]" measured_result=0.87

**Q:** Identify measured log10 of IC50 corresponding to CCOC(=O)N1CCC(c2n[nH]c(=O)c3ccccc23)CC1 [Compound 25]
**A:** 0.48

**Q:** Identify measured log10 of IC50 corresponding to CCOC(=O)N1CCC(Nc2n[nH]c(=O)c3ccccc23)C1 (centres unmarked) [Compound 48]
**A:** 0.49
